Below is a list of entries, each paired with its recorded Stability (T1/2 (h)) value.
- Test system: HLA Class I molecules
- test description: HLA class I binding stability assay (pMHC-I complex dissociation, 125I-labeled β2m, scintillation counts)
- Set-up: species or system human
- measurement conditions: allele A02.01; pMHC-I dissociation at 37° C.

Some entries whose results are on file:
CC(C)C[C@H](NC(=O)[C@H](Cc1c[nH]cn1)NC(=O)[C@H](CCC(=O)O)NC(=O)[C@H](Cc1ccccc1)NC(=O)[C@H](CCCCN)NC(=O)[C@H](CC(=O)O)NC(=O)[C@H](CCC(N)=O)NC(=O)[C@H](CC(C)C)NC(=O)[C@@H](N)CCC(N)=O)C(=O)O = 0.6 h
CC[C@H](C)[C@H](N)C(=O)N[C@@H](CCSC)C(=O)N[C@@H](CCC(N)=O)C(=O)N[C@@H](CC(C)C)C(=O)N[C@@H](CCSC)C(=O)N1CCC[C@H]1C(=O)N[C@@H](Cc1ccccc1)C(=O)NCC(=O)N[C@@H](CS)C(=O)N[C@@H](CC(C)C)C(=O)O = 0.5 h
CC[C@H](C)[C@H](NC(=O)[C@H](CC(C)C)NC(=O)[C@@H](N)CCC(N)=O)C(=O)N[C@@H](CCSC)C(=O)N[C@@H](CCC(N)=O)C(=O)N[C@@H](CC(C)C)C(=O)N[C@@H](CCSC)C(=O)N1CCC[C@H]1C(=O)N[C@@H](Cc1ccccc1)C(=O)O = 0.3 h

Next:
Input: Read the entry CC[C@H](C)[C@H](N)C(=O)N[C@@H](CCC(N)=O)C(=O)N[C@@H](CC(C)C)C(=O)N[C@@H](CCC(N)=O)C(=O)N[C@@H](CC(=O)O)C(=O)N[C@@H](CCCCN)C(=O)N[C@@H](Cc1ccccc1)C(=O)N[C@@H](CCC(=O)O)C(=O)N[C@@H](Cc1c[nH]cn1)C(=O)N[C@@H](CC(C)C)C(=O)O and write its reported Stability (T1/2 (h)).
Output: 0.2 h
